- study conditions: % Viability non-Wnt responsive cells; further: test concentration or dose not given here
Where a SMILES comes first, the peptide text is derived from it.
value type: viability (%)
Form entry: value (%) — number only.

| molecule | viability, % |
| --- | --- |
| CC[C@H](C)[C@H](NC(=O)[C@H](CC(C)C)NC(=O)[C@@H](NC(=O)C(C)(Cc1c[nH]c2ccccc12)NC(=O)[C@@H](N)CCSC)[C@@H](C)CC)C(=O)N[C@@H](CS)C(=O)N[C@@H](Cc1ccccc1)C(=O)N[C@@H](Cc1c[nH]c2ccccc12)C(=O)NCC(=O)O (some centres unmarked) [compound 132] (HELM PEPTIDE1{M.[CC(Cc1c[nH]c2ccccc12)(N[*:1])C(=O)[*:2]].I.L.I.C.F.W.G}$$$$V2.0) | 102 |

Now turn to the next molecule.
Incoming: Input CC[C@H](C)[C@H](NC(=O)[C@H](CC(C)C)NC(=O)[C@H](Cc1ccccc1)NC(=O)[C@H](Cc1c[nH]c2ccccc12)NC(=O)[C@H](CCSC)NC(=O)[C@H](CCCNC(=N)N)NC(=O)[C@H](CO)NC(=O)[C@@H](N)CCSC)C(=O)N[C@@H](CO)C(=O)N[C@@H](CO)C(=O)N[C@@H](Cc1c[nH]c2ccccc12)C(=O)O [compound 99] (H-MSRMWFLISSW-OH) , output reported viability.
Outgoing: 97.3
